Tested on: Botrytis cinerea
RUN_DESCRIPTION: Test E: test suspension sprayed on tomato seedlings, inoculated next day with Botrytis cinerea (tomato Botrytis); visual disease rating (100 = 100% disease control, 0 = no control; dash = not tested)
Format: in vivo
MEASUREMENT_PARAMETERS: 250 ppm
MEASUREMENT_TYPE: Test E disease control rating (%)
Only the number, expressed in %, is required.

**Q:** For the compound CCn1nc(-c2cc(OC)cc(OC)c2)c(-c2cc(OC)cc(OC)c2)cc1=O [Compound 3] , give its reported Test E disease control rating.
**A:** 0

**Q:** Given the compound CCn1nc(-c2ccc(F)cc2Cl)c(-c2ccc(F)cc2Cl)c(C#N)c1=O [Compound 7] , write its reported Test E disease control rating.
**A:** 99

**Q:** # return recorded Test E disease control rating for input Cn1nc(-c2ccc(F)cc2Cl)c(-c2ccc(F)cc2Cl)c(C(=O)O)c1=O [Compound 144]
**A:** 0

**Q:** Identify measured Test E disease control rating corresponding to Cn1nc(-c2ccc(F)cc2Cl)c(-c2ccc(F)cc2Cl)c(CO)c1=O [Compound 172]
**A:** 83

**Q:** // Input: CCOC(=O)c1c(-c2ccc(F)cc2Cl)c(-c2ccc(F)cc2Cl)nn(C)c1=O [Compound 143] . Output its Test E disease control rating only.
**A:** 0

**Q:** Fill in Test E disease control rating for record COc1cccc(-c2nn(C)c(=O)cc2-c2c(F)cccc2F)c1Cl [Compound 30]
**A:** 100

**Q:** Dear colleague, please send me the reported Test E disease control rating for CCn1nc(-c2ccc(F)cc2Cl)c(-c2ccc(F)cc2Cl)c(Cl)c1=O [Compound 24] when you can.
**A:** 100

**Q:** Supply reported Test E disease control rating belonging to this compound: CCOC(=O)c1c(-c2ccc(F)cc2Cl)c(-c2ccc(F)cc2Cl)nn(C)c1=O [Compound 153]
**A:** 0

* * *

Tested on: Blumeria graminis f. sp. tritici
RUN_DESCRIPTION: Test C: test suspension sprayed on wheat seedlings, inoculated next day with Blumeria graminis f. sp. tritici (wheat powdery mildew); visual disease rating (100 = 100% disease control, 0 = no control; dash = not tested)
Assay type: in vivo
MEASUREMENT_PARAMETERS: 250 ppm
Exercise: state measured Test C disease control rating for each of the compounds provided.
// return numeric value only (unit: %, not printed)

**Q:** Please indicate Test C disease control rating recorded for CCOC(=O)c1c(-c2ccc(F)cc2Cl)c(-c2ccc(F)cc2Cl)nn(C)c1=O [Compound 153]
**A:** 96

**Q:** Check the records and state Test C disease control rating for CCn1nc(-c2cc(OC)cc(OC)c2)c(-c2c(F)cccc2F)c(Cl)c1=O
**A:** 0

**Q:** Name the recorded Test C disease control rating of the compound listed here: Cn1nc(-c2ccc(F)cc2Cl)c(-c2ccc(F)cc2Cl)c(C(=O)O)c1=O
**A:** 0

**Q:** Supply measured Test C disease control rating of Cn1nc(-c2cccc(F)c2Cl)c(-c2c(F)cccc2F)cc1=O in your reply.
**A:** 99

**Q:** Retrieve Test C disease control rating measured for CCn1nc(-c2cc(OC)cc(OC)c2)c(-c2cc(OC)cc(OC)c2)cc1=O and print it.
**A:** 0

**Q:** Item Cn1nc(-c2ccccc2)c(-c2c(F)cccc2F)cc1=O : provide Test C disease control rating
**A:** 99

**Q:** // fetch Test C disease control rating given entry CCn1nc(-c2cc(OC)cc(OC)c2)c(-c2ccc(F)cc2Cl)cc1=O
**A:** 96

**Q:** Read the entry CCn1nc(-c2ccc(F)cc2Cl)c(-c2ccc(F)cc2Cl)c(C#N)c1=O and write its reported Test C disease control rating.
**A:** 0

**Q:** Identify Test C disease control rating associated with the compound CCn1nc(-c2cc(OC)cc(OC)c2)c(-c2c(F)cccc2F)cc1=O
**A:** 29

* * *

Record form. Attribute: Test C disease control rating. Fill in for each entry.
Test system: Blumeria graminis f. sp. tritici
RUN_DESCRIPTION: Test C: test suspension sprayed on wheat seedlings, inoculated next day with Blumeria graminis f. sp. tritici (wheat powdery mildew); visual disease rating (100 = 100% disease control, 0 = no control; dash = not tested)
Assay type: in vivo
MEASUREMENT_PARAMETERS: 50 ppm
Output spec: scalar in %, unitless text.

**Q:** Give Test C disease control rating for this entry on Blumeria graminis f. sp. tritici: COc1ccc(C)c(-c2nn(C)c(=O)c(C)c2-c2ccc(F)cc2Cl)c1
**A:** 100

**Q:** Send back Blumeria graminis f. sp. tritici Test C disease control rating of COc1ccc(Cl)c(-c2nn(C)c(=O)c(Cl)c2-c2ccc(F)cc2Br)c1 only.
**A:** 100

**Q:** Please tell me the measured Test C disease control rating for COc1ccc(Cl)c(-c2nn(C)c(=O)c(C3CC3)c2-c2ccc(F)cc2Cl)c1 ; system: Blumeria graminis f. sp. tritici.
**A:** 91

**Q:** // output Test C disease control rating; input COc1cc(OC)cc(-c2nn(C)c(=O)c(OC)c2-c2ccc(F)cc2Cl)c1 ; system Blumeria graminis f. sp. tritici
**A:** 98

**Q:** State, for Blumeria graminis f. sp. tritici, measured Test C disease control rating of the compound listed here: COc1ccc(-c2nn(C)c(=O)c(Cl)c2-c2ccc(F)cc2Cl)c(F)c1
**A:** 78

**Q:** Fill: Test C disease control rating (Blumeria graminis f. sp. tritici) for this compound COc1cccc(-c2nn(C)c(=O)c(OC)c2-c2ccc(F)cc2Cl)c1Cl
**A:** 100

**Q:** Identify measured Test C disease control rating obtained with Blumeria graminis f. sp. tritici for COc1cc(F)c(Br)c(-c2nn(C)c(=O)c(OC)c2-c2ccc(F)cc2Cl)c1 .
**A:** 99

**Q:** Give Test C disease control rating; test system Blumeria graminis f. sp. tritici; compound COc1ccc(Cl)c(-c2nn(C)c(=O)c(OC)c2-c2c(F)cccc2F)c1
**A:** 99

**Q:** Fill in Test C disease control rating for COc1ccc(Cl)c(C2=NN(C)C(=O)C(C)C2c2c(F)cccc2F)c1 (centres unmarked) tested with Blumeria graminis f. sp. tritici.
**A:** 99

**Q:** Consider the compound CCc1c(-c2c(F)cccc2F)c(-c2cc(OC)cc(F)c2Cl)nn(C)c1=O tested on Blumeria graminis f. sp. tritici; state its Test C disease control rating.
**A:** 100

**Q:** Write Test C disease control rating of COc1cc(F)c(Cl)c(-c2nn(C)c(=O)cc2-c2c(F)cccc2F)c1 ; system used: Blumeria graminis f. sp. tritici
**A:** 98

**Q:** Give reported Test C disease control rating for COc1cc(OC)cc(-c2nn(C)c(=O)c(Cl)c2-c2ccc(F)cc2Cl)c1 (Blumeria graminis f. sp. tritici)
**A:** 98

**Q:** Look up and report measured Test C disease control rating (Blumeria graminis f. sp. tritici) for the following compound: COc1cccc(-c2nn(C)c(=O)c(Cl)c2-c2ccc(F)cc2Cl)c1Cl
**A:** 99

**Q:** System Blumeria graminis f. sp. tritici. Read-out Test C disease control rating. Item Cn1nc(-c2ccc(F)cc2Cl)c(-c2ccc(F)cc2Cl)c(C(C)(C)O)c1=O . Report value.
**A:** 0

**Q:** Consider the compound Cn1nc(-c2cccc(Cl)c2Cl)c(-c2ccc(F)cc2Cl)c(Cl)c1=O tested on Blumeria graminis f. sp. tritici; state its Test C disease control rating.
**A:** 100

**Q:** Please tell me the measured Test C disease control rating for COc1cc(OC)c(Br)c(-c2nn(C)c(=O)c(OC)c2-c2ccc(F)cc2Cl)c1 ; system: Blumeria graminis f. sp. tritici.
**A:** 100

**Q:** Check Blumeria graminis f. sp. tritici data and give Test C disease control rating for Cc1c(-c2ccc(F)cc2Cl)c(-c2cc(F)ccc2Cl)nn(C)c1=O .
**A:** 100

* * *

For each entry below, report its Test C disease control rating value.
Test system: Blumeria graminis f. sp. tritici
RUN_DESCRIPTION: Test C: test suspension sprayed on wheat seedlings, inoculated next day with Blumeria graminis f. sp. tritici (wheat powdery mildew); visual disease rating (100 = 100% disease control, 0 = no control; dash = not tested)
Assay type: in vivo
MEASUREMENT_PARAMETERS: 50 ppm
I only need the number, in %, no unit after it.

**Q:** Answer with the recorded Test C disease control rating of COc1cc(OC)c([N+](=O)[O-])c(-c2nn(C)c(=O)cc2-c2c(F)cccc2F)c1Cl only.
**A:** 0

**Q:** Complete the entry with Test C disease control rating for COc1ccc(Cl)c(-c2nn(C)c(=O)c(Cl)c2-c2ccc(C#N)cc2Cl)c1
**A:** 97

**Q:** Tell me its Test C disease control rating given COc1ccc(Cl)c(-c2nn(C)c(=O)c(Cl)c2-c2ccc(F)cc2F)c1 as the entry.
**A:** 99

**Q:** State its Test C disease control rating: COc1cc(OC)cc(-c2nn(C)c(=O)c(Br)c2-c2ccc(F)cc2Cl)c1
**A:** 95

**Q:** Write down Test C disease control rating measured for item COc1ccc(F)c(-c2nn(C)c(=O)c(C)c2-c2ccc(F)cc2Cl)c1
**A:** 100

**Q:** Identify the reported Test C disease control rating for the following entry. COc1cc(F)c(Cl)c(-c2nn(C)c(=O)c(OC)c2-c2ccc(F)cc2Cl)c1
**A:** 99

**Q:** Provide measured Test C disease control rating value, entry: Cn1nc(-c2cc(F)ccc2Cl)c(-c2ccc(F)cc2Cl)cc1=O
**A:** 98

**Q:** Provide Test C disease control rating value for the following compound: COc1cc(OC)c(Cl)c(-c2nn(C)c(=O)c(C)c2-c2ccc(F)cc2Cl)c1Cl [Compound 169]
**A:** 43

The measured values listed here are drawn from patent US20230095836A1.
